Entry source: BindingDB's records for doi:10.1016/j.bmcl.2007.11.134

Provide the recorded pIC50 for the entries that follow.
experiment: Inhibition of HIV1 reverse transcriptase K103N mutant by HeLa-MAGI assay
One number for each entry, as −log10 of the molar value.

# compound string, pIC50
rows = [
    ("Cc1cc(NCCCn2ccnc2)ccc1NC(=O)COc1ccc(Cl)cc1C(=O)c1cc(F)cc(F)c1", 6.80),
]

For each listed entry, give its pIC50.
1. O=C(COc1ccc(Cl)cc1C(=O)c1cc(F)cc(F)c1)Nc1ccc(Cl)nc1
2. Cc1cc(C#N)cc(C(=O)c2cc(Cl)ccc2OCC(=O)Nc2ncc(S(N)(=O)=O)cc2C)c1
3. Cc1cc(NCCCN2CCCC2)ccc1NC(=O)COc1ccc(Cl)cc1C(=O)c1cc(F)cc(F)c1

Reply:
1: 7.17; 2: 7.03; 3: 6.96
